- Target or system: T1, his6-Siah1 T156C (aa 81-282) (UniProt Q8IUQ4 81-282, T156C)
- T1 sequence (looked up): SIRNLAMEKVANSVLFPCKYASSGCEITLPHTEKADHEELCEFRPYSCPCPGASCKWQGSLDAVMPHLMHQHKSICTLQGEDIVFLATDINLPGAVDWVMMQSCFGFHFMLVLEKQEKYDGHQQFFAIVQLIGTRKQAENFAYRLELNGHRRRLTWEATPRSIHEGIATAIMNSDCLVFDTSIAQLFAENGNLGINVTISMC
- Assay details: DELFIA displacement assay
Square brackets hold non-standard residues; d marks the D form. * marks the point of attachment. Abu = CC[C@H](N)C(=O)O; Dap = NC[C@H](N)C(=O)O; Acryloyl = C=CC(=O)*
Value type: pIC50
// pIC50 here means minus log10 of the molar concentration (mol/L)

| Binder | pIC50 |
| --- | --- |
| Ac-KLRPV[Abu]MVRPTVR-NH2 [BI-107E1 (Ac-KLRPVεMVRPTVR-NH2)] | 5.70 |

Form field: reported pIC50 of Ac-KLRPVAMVRPWVR-NH2 [BI-107F1 (Ac-KLRPVAMVRPWVR-NH2)]
6.40

Same lookup for Ac-KLRPV[Dap](Acryloyl)MVRPWVR-NH2 (SMILES C=CC(=O)NC[C@H](NC(=O)[C@@H](NC(=O)[C@@H]1CCCN1C(=O)[C@H](CCCNC(=N)N)NC(=O)[C@H](CC(C)C)NC(=O)[C@H](CCCCN)NC(C)=O)C(C)C)C(=O)N[C@@H](CCSC)C(=O)N[C@H](C(=O)N[C@@H](CCCNC(=N)N)C(=O)N1CCC[C@H]1C(=O)N[C@@H](Cc1c[nH]c2ccccc12)C(=O)N[C@H](C(=O)N[C@@H](CCCNC(=N)N)C(N)=O)C(C)C)C(C)C) [BI-117C3 (Ac-KLRPVδMVRPWVR-NH2)] , please.
8.22

Try this binder too: Ac-KLRPVAMVRPMVR-NH2 [BI-107E12 (Ac-KLRPVAMVRPMVR-NH2)]
6.05

Let us now turn to Ac-KLRPVAMVRPTVR-NH2 [BI-107D1 (Ac-KLRPVAMVRPTVR-NH2)]
6.00

FYI, the data here is from paper PMC3763817.
